Biological target: human granulocyte elastase (Homo sapiens, UniProt P08246)
Sequence (P08246 30-267): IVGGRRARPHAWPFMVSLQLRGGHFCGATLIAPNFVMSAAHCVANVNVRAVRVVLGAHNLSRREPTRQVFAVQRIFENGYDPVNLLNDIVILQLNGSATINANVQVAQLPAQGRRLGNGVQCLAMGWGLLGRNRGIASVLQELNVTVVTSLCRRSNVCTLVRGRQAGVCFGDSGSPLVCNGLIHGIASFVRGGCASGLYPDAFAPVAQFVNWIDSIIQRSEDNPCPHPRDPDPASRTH
Test: in vitro elastase inhibition, test method of Visser and Blout, human granulocyte elastase as enzyme
Type: biochemical
Conditions: read-out: I50, concentration which gives 50% inhibition of the human granulocyte elastase
pIC50: −log10 of the molar value. Residues, ends and D or L forms follow the SMILES beside them. *: point of attachment. Tos = Cc1ccc(S(=O)(=O)*)cc1; Hexanoyl = CCCCCC(=O)*; NHPh = c1ccc(N*)cc1
RESULT_TYPE: pIC50

Solved entries (count: 2):
INSERT INTO results (molecule, assayed_system, reading) VALUES
  ('Cc1ccc(S(=O)(=O)N[C@@H](C)C(=O)N2CCC[C@H]2C(=O)Nc2ccccc2)cc1 (Tos-Ala-Pro-NHPh)', 'human granulocyte elastase (Homo sapiens, UniProt P08246)', 4.22),
  ('C[C@H](NS(=O)(=O)C12CC3CC(CC(C3)C1)C2)C(=O)N1CCC[C@H]1C(=O)Nc1ccccc1', 'human granulocyte elastase (Homo sapiens, UniProt P08246)', 5.15);

[P] C[C@H](NC(=O)CC12CC3CC(CC(C3)C1)C2)C(=O)N1CCC[C@H]1C(=O)Nc1ccccc1
[Q] CCCCCC(=O)N[C@@H](C)C(=O)N1CCC[C@H]1C(=O)Nc1ccccc1 [(N-Hexanoyl-L-alanyl-L-proline) anilide, N-Hexanoyl-L-alanyl-L-proline anilide] (Hexanoyl-Ala-Pro-NHPh)
Query: Of P and Q , which carries the smaller reported pIC50 figure? Your answer should be the label attached to the chosen record.
Reply: Q

###

pKi: −log10 of the molar value. Where a name gives a salt, the structure may show the parent alone. Residues, ends and D or L forms follow the SMILES beside them. *: point of attachment. pNA = O=[N+]([O-])c1ccc(N*)cc1; Propionyl = CCC(=O)*; Tfa = O=C(C(F)(F)F)*; NHPh = c1ccc(N*)cc1
Recorded pKi values (porcine pancreatic elastase (Sus scrofa, UniProt P00772)) are given below.
RESULT_TYPE: pKi

INSERT INTO results (compound, reading) VALUES
  ('CCC(=O)N[C@@H](C)C(=O)N1CCC[C@H]1C(=O)Nc1ccc([N+](=O)[O-])cc1 (Propionyl-Ala-Pro-pNA)', 4.59);

[a] C[C@H](NC(=O)C(F)(F)F)C(=O)N1CCC[C@H]1C(=O)Nc1ccccc1 (Tfa-Ala-Pro-NHPh)
[b] CCC(=O)N[C@@H](C)C(=O)N[C@@H](C)C(=O)Nc1ccccc1 [N-Propionyl-L-alanyl-L-alanine anilide] (Propionyl-Ala-Ala-NHPh)
Query: Compare a and b by numeric pKi and name the larger one. Your answer should be the label attached to the chosen record.
Reply: a
(a: 5.85, b: 4.40)
